Data origin, for the record: patent US20100197727A1

- Test system: Streptococcus pyogens (ATCC8668)
- procedure details: Microtitre plate assay, IC90 determination
- Type: cell-based
- setup conditions: 90% inhibitory concentration for bacterial growth
assay metric: IC90 SPY 8668 (µg/mL)
The answer is to be given in µg/mL; state only the numeric part.

Consider the following illustrative entries.
molecule	IC90 SPY 8668 (µg/mL)
COc1nc2ccc(Br)cc2cc1C(c1ccccc1)C(O)(CC[N+](C)(C)C)c1cccc2ccccc12.[I-] (single isomer, unassigned) [Compound 121]	3.5
COc1nc2ccc(Br)cc2cc1C(c1ccccc1)C(O)(CC[N+](C)(C)C)c1cccc2ccccc12.[I-] (single isomer, unassigned) [Compound 102]	2.5

[in] Lab note: need IC90 SPY 8668 for COc1nc2ccc(Br)cc2cc1C(c1ccccc1)C(O)(CC[N+](C)(C)C)c1ccccc1.[I-] (single isomer, unassigned) [Compound 10] on Streptococcus pyogens (ATCC8668), anyone have it?
[out] 1.3

[in] Item: COc1nc2ccc(Br)cc2cc1C(c1ccccc1)C(O)(CC[N+](C)(C)C)c1ccsc1.[I-] (single isomer, unassigned) [Compound M] Test system: Streptococcus pyogens (ATCC8668) Read-out: IC90 SPY 8668 Value: ?
[out] 8.34

[in] // map COc1nc2ccc(Br)cc2cc1C(c1ccccc1)C(O)(CC[N+](C)(C)C)c1ccc2ccccc2c1.[I-] (single isomer, unassigned) [Compound Q] to recorded IC90 SPY 8668 (system: Streptococcus pyogens (ATCC8668))
[out] 1.8

[in] // map COc1nc2ccc(Br)cc2cc1C(c1ccccc1)C(O)(CCC[N+](C)(C)C)c1ccc2ccccc2c1.[I-] (single isomer, unassigned) [Compound S] to recorded IC90 SPY 8668 (system: Streptococcus pyogens (ATCC8668))
[out] 1.85

----------
- Tested on: Staphylococcus aureus (ATCC29213)
- procedure details: Microtitre plate assay, IC90 determination
- Type: cell-based
- setup conditions: 90% inhibitory concentration for bacterial growth
// reported IC90 STA 29213 for each item listed
Please give a number only; it is taken to be in µg/mL.

Some compounds with known IC90 STA 29213 results, for comparison:
compound	assay metric	recorded number
COc1nc2ccc(Br)cc2cc1C(c1ccccc1)C(O)(CC[N+](C)(C)C)c1cccc2ccccc12.[I-] (single isomer, unassigned) [Compound 103]	IC90 STA 29213	2.0
COc1nc2ccc(Br)cc2cc1C(c1ccccc1)C(O)(CCCC[N+](C)(C)C)c1ccccc1.[I-] (single isomer, unassigned) [Compound K]	IC90 STA 29213	2.1
COc1nc2ccc(Br)cc2cc1C(c1ccccc1)C(O)(CCc1ccccc1)CC[N+](C)(C)C.[I-] (single isomer, unassigned) [E]	IC90 STA 29213	2.1
COc1nc2ccc(Br)cc2cc1C(c1ccccc1)C(O)(CCC[N+](C)(C)C)c1ccc2ccccc2c1.[I-] (single isomer, unassigned) [Compound S]	IC90 STA 29213	0.4
COc1nc2ccc(Br)cc2cc1C(c1ccccc1)C(O)(CCCC[N+](C)(C)C)c1ccccc1.[I-] (single isomer, unassigned) [J]	IC90 STA 29213	2.1
COc1nc2ccc(Br)cc2cc1C(c1ccccc1)C(O)(CCCC[N+](C)(C)C)c1ccc2ccccc2c1.[I-] (single isomer, unassigned) [I]	IC90 STA 29213	2.9
COc1nc2ccc(Br)cc2cc1C(c1ccc(Cl)cc1)C(O)(CC[N+](C)(C)C)c1ccccc1.[I-] (single isomer, unassigned) [Compound N]	IC90 STA 29213	1.8
COc1nc2ccc(Br)cc2cc1C(c1ccccc1)C(O)(CCCC[N+]1(C)CCCCC1)c1ccccc1.[I-] (single isomer, unassigned) [Compound U]	IC90 STA 29213	1.9
CSc1nc2ccc(Br)cc2cc1C(c1ccccc1)C(O)(CC[N+](C)(C)C)c1ccccc1.[I-] (single isomer, unassigned) [Compound T]	IC90 STA 29213	1.7
COc1nc2ccc(Br)cc2cc1C(c1ccccc1)C(O)(CC[N+](C)(C)C)c1ccc2ccccc2c1.[I-] (single isomer, unassigned) [Compound Q]	IC90 STA 29213	1.8

[in] Param readout= IC90 STA 29213; system= Staphylococcus aureus (ATCC29213); entry= COc1nc2ccc(Br)cc2cc1C(c1ccccc1)C(O)(CCc1ccccc1)CC[N+](C)(C)C.[I-] (single isomer, unassigned) [Compound F] ; returns value.
[out] 2.1

[in] Find the measured IC90 STA 29213: item COc1nc2ccc(Br)cc2cc1C(c1ccccc1)C(O)(CC[N+](C)(C)C)c1cccc2ccccc12.[I-] (single isomer, unassigned) [Compound 121] , target or system Staphylococcus aureus (ATCC29213).
[out] 0.4

[in] Test system Staphylococcus aureus (ATCC29213); read-out IC90 STA 29213; what value for COc1nc2ccc(Br)cc2cc1C(c1ccccc1)C(O)(CCC[N+](C)(C)C)c1cccc2ccccc12.[I-] (single isomer, unassigned) [Compound G] ?
[out] 0.4

[in] So what IC90 STA 29213 did CCCC[N+](C)(C)CCC(O)(c1cccc2ccccc12)C(c1ccccc1)c1cc2cc(Br)ccc2nc1OC.[I-] (single isomer, unassigned) [Compound C] get with Staphylococcus aureus (ATCC29213)?
[out] 0.4

[in] Record lookup: for Staphylococcus aureus (ATCC29213), what IC90 STA 29213 belongs to CSc1nc2ccc(Br)cc2cc1C(c1ccccc1)C(O)(CCCC[N+](C)(C)C)c1ccccc1.[I-] (single isomer, unassigned) [Compound L] ?
[out] 2.2

[in] Notebook entry, Staphylococcus aureus (ATCC29213) assay: IC90 STA 29213 of COc1nc2ccc(Br)cc2cc1C(c1ccccc1)C(O)(CC[N+](C)(C)C)c1ccccc1.[I-] (single isomer, unassigned) [Compound 10] = ?
[out] 14.5

[in] Value wanted: IC90 STA 29213 (Staphylococcus aureus (ATCC29213)) of entry COc1nc2ccc(Br)cc2cc1C(c1ccccc1)C(O)(CCCC[N+](C)(C)C)c1ccc2ccccc2c1.[I-] (single isomer, unassigned) [Compound H]
[out] 0.5

[in] Request body: readout IC90 STA 29213, system Staphylococcus aureus (ATCC29213), query COc1nc2ccc(Br)cc2cc1C(c1ccccc1)C(O)(CC[N+](C)(C)C)c1ccsc1.[I-] (single isomer, unassigned) [Compound M] . Return the value.
[out] 1.7

[in] Item COc1nc2ccc(Br)cc2cc1C(c1ccccc1)C(O)(CCC[N+](C)(C)C)c1ccc2ccccc2c1.[I-] (single isomer, unassigned) [R] with Staphylococcus aureus (ATCC29213) - IC90 STA 29213?
[out] 0.4

[in] Reported IC90 STA 29213 for Staphylococcus aureus (ATCC29213), given COc1nc2ccc(Br)cc2cc1C(c1ccccc1)C(O)(CC[N+](C)(C)C)c1ccccc1.[I-] (single isomer, unassigned) [Compound 57] ?
[out] 12.9

[in] Find the measured IC90 STA 29213: item COc1nc2ccc(Br)cc2cc1C(c1ccccc1)C(O)(CC[N+](C)(C)C)c1cccc(F)c1.[I-] (single isomer, unassigned) [Compound O] , target or system Staphylococcus aureus (ATCC29213).
[out] 1.9

[in] # value lookup — system Staphylococcus aureus (ATCC29213), readout IC90 STA 29213, item COc1nc2ccc(Br)cc2cc1C(c1ccccc1)C(O)(CC[N+](C)(C)C)c1cccc2ccccc12.[I-] (single isomer, unassigned) [Compound 102]
[out] 2.8

----------
- System: Streptococcus pyogens (ATCC8668)
- procedure details: Microtitre plate assay, IC90 determination
- Format: cell-based
- setup conditions: 90% inhibitory concentration for bacterial growth
assay metric: IC90 SPY 8668 (µg/mL)
Give the number; µg/mL is assumed, so skip it.

[in] Give IC90 SPY 8668 (Streptococcus pyogens (ATCC8668)) of the following molecule: CSc1nc2ccc(Br)cc2cc1C(c1ccccc1)C(O)(CCCC[N+](C)(C)C)c1ccccc1.[I-] (single isomer, unassigned) [Compound L]
[out] 0.4

[in] Checklist item: IC90 SPY 8668 tested on Streptococcus pyogens (ATCC8668), entry COc1nc2ccc(Br)cc2cc1C(c1ccccc1)C(O)(CCCC[N+]1(C)CCCCC1)c1ccccc1.[I-] (single isomer, unassigned) [Compound U] , value?
[out] 1.86

----------
- Test system: Streptococcus pyogens (ATCC8668)
- procedure details: Microtitre plate assay, IC90 determination
- Type: cell-based
- setup conditions: 90% inhibitory concentration for bacterial growth
assay metric: IC90 SPY 8668 (µg/mL)
Write the value in µg/mL as a bare number.

compound	result unit	IC90 SPY 8668
CSc1nc2ccc(Br)cc2cc1C(c1ccccc1)C(O)(CC[N+](C)(C)C)c1ccccc1.[I-] (single isomer, unassigned)	µg/mL	1.7
COc1nc2ccc(Br)cc2cc1C(c1ccccc1)C(O)(CC[N+](C)(C)C)c1ccccc1.[I-] (single isomer, unassigned) [Compound 57]	µg/mL	12.9

Now for another entry.
[in] Given the entry COc1nc2ccc(Br)cc2cc1C(c1ccccc1)C(O)(CCC[N+](C)(C)C)c1ccc2ccccc2c1.[I-] (single isomer, unassigned) [R] , report its measured IC90 SPY 8668.
[out] 0.74
